# Test system: clinical isolate of E. coli M50 producing CMY 6, DHA—1/2 beta-lactamase enzymes
# experimental_protocol: Time kill study against clinical isolate E. coli M50
# Format: cell-based
# experimental_conditions: agent alone 4 mcg/ml; 6 hours
# Description: The synergistic killing effect of the combinations according to invention was studied by performing time kill studies. In a typical time kill study, the freshly grown cultures were diluted to the required cell density (initial starting inoculum) in Cation adjusted Muller Hinton broth medium (BD, USA). The antibacterial agents (either alone or in combination) at the required concentrations were added into the culture-containing medium. […]

>  <molecule>
Nc1nc(/C(=C/CC(=O)O)C(=O)N[C@@H]2C(=O)N3C(C(=O)O)=CCS[C@H]23)cs1 [Ceftibuten, ceftibuten]

>  <Bacterial count (Log10 CFU/ml) 6 hours>
9.08

$$$$
>  <molecule>
C=CC1=C(C(=O)O)N2C(=O)[C@@H](NC(=O)/C(=N\OCC(=O)O)c3csc(N)n3)[C@H]2SC1 [Cefixime, cefixime]

>  <Bacterial count (Log10 CFU/ml) 6 hours>
8.90

$$$$
>  <molecule>
COCC1=C(C(=O)O)N2C(=O)[C@@H](NC(=O)/C(=N\OC)c3csc(N)n3)[C@H]2SC1 [Cefpodoxime, cefpodoxime]

>  <Bacterial count (Log10 CFU/ml) 6 hours>
9.16

$$$$
>  <molecule>
CO/N=C(\C(=O)N[C@@H]1C(=O)N2C(C(=O)O)=C(COC(N)=O)CS[C@H]12)c1ccco1 [Cefuroxime, cefuroxime]

>  <Bacterial count (Log10 CFU/ml) 6 hours>
9.2

$$$$
>  <molecule>
O=C(NOC[C@@H]1CCCN1)[C@@H]1CC[C@@H]2CN1C(=O)N2OS(=O)(=O)O [Compound of Formula (I)]

>  <Bacterial count (Log10 CFU/ml) 6 hours>
8.07

$$$$

---

# System: E. coli NCTC 13353 producing CTX-M15 and OXA 1 beta-lactamase enzymes
# experimental_protocol: Time kill study against E. coli NCTC 13353
# Assay type: cell-based
# experimental_conditions: agent alone 1 mcg/ml; 6 hours

>  <smiles_string>
C=CC1=C(C(=O)O)N2C(=O)[C@@H](NC(=O)/C(=N\OCC(=O)O)c3csc(N)n3)[C@H]2SC1

>  <Bacterial count (Log10 CFU/ml) 6 hours>
8.84 Log10 CFU/ml

$$$$
>  <smiles_string>
Nc1nc(/C(=C/CC(=O)O)C(=O)N[C@@H]2C(=O)N3C(C(=O)O)=CCS[C@H]23)cs1

>  <Bacterial count (Log10 CFU/ml) 6 hours>
9.04 Log10 CFU/ml

$$$$
>  <smiles_string>
COCC1=C(C(=O)O)N2C(=O)[C@@H](NC(=O)/C(=N\OC)c3csc(N)n3)[C@H]2SC1

>  <Bacterial count (Log10 CFU/ml) 6 hours>
8.90 Log10 CFU/ml

$$$$
